Endpoint summary: pIC50, system: Type-1 angiotensin II receptor (Homo sapiens), multiple sources combined.
# TARGET DESC: Type-1 angiotensin II receptor (Homo sapiens)
# Sequence (P30556 whole entry): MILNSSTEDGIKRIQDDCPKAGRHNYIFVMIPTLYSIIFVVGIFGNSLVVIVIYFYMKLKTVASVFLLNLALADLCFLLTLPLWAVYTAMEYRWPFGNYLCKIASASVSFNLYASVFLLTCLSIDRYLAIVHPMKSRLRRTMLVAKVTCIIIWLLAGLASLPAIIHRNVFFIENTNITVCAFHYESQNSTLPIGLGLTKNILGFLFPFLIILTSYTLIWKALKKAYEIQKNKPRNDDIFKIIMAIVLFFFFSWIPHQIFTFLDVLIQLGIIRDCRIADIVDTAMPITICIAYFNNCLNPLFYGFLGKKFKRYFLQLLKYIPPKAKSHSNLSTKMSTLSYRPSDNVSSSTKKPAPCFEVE
pIC50: −log10 of the molar value.

{"STRUCTURE SMILES STRING": "Cc1ccnc(SCc2cc(=O)c(OC(=O)c3cccc(C#N)c3)co2)n1", "TARGET DESC": "Type-1 angiotensin II receptor (Homo sapiens)", "QUAL": "<", "pIC50": 4.10}
{"STRUCTURE SMILES STRING": "CCCCC(=O)Nc1ccc(Br)c(-n2nc(CC)n(Cc3ccc(-c4ccccc4S(=O)(=O)NC(=O)OC(C)(C)C)cc3F)c2=O)c1", "TARGET DESC": "Type-1 angiotensin II receptor (Homo sapiens)", "QUAL": "=", "pIC50": 9.70}
{"STRUCTURE SMILES STRING": "CCCc1nc2c(C)cc(C(=O)NCCc3cccc(OC)c3)cc2n1Cc1ccc(-c2ccccc2C(=O)Nc2nnn[nH]2)cc1", "TARGET DESC": "Type-1 angiotensin II receptor (Homo sapiens)", "QUAL": "=", "pIC50": 7.43}
{"STRUCTURE SMILES STRING": "CCc1nc2ccn(Cc3ccccn3)c(=O)c2n1[C@H]1CCc2cc(-c3ccccc3-c3nnn[nH]3)ccc21", "TARGET DESC": "Type-1 angiotensin II receptor (Homo sapiens)", "QUAL": "=", "pIC50": 7.20}
